Data credit: patent US11420975B2

test: Pharmacokinetic study in male beagle dogs, intragastric; type: in vivo; conditions: male, beagle, plasma, po; dog, 5 mg/kg
Attribute measured: Tmax

Give recorded Tmax. Nc1nccn2c(C34CCC(NC(=O)CN5CCOCC5)(CC3)C4)nc(-c3ccc(C(=O)Nc4cc(C(F)(F)F)ccn4)cc3)c12
8 h

###

Documented IC50 across a set of compounds
target: BTK(C481S) (Homo sapiens (Human), UniProt Q06187, C481S); assay: In vitro inhibitory activity against BTK(C481S) enzyme (33P-ATP filter binding); assay type: biochemical; details: class symbols; read-out: IC50 BTK(C48IS)
Sequence (Q06187 whole entry C481S): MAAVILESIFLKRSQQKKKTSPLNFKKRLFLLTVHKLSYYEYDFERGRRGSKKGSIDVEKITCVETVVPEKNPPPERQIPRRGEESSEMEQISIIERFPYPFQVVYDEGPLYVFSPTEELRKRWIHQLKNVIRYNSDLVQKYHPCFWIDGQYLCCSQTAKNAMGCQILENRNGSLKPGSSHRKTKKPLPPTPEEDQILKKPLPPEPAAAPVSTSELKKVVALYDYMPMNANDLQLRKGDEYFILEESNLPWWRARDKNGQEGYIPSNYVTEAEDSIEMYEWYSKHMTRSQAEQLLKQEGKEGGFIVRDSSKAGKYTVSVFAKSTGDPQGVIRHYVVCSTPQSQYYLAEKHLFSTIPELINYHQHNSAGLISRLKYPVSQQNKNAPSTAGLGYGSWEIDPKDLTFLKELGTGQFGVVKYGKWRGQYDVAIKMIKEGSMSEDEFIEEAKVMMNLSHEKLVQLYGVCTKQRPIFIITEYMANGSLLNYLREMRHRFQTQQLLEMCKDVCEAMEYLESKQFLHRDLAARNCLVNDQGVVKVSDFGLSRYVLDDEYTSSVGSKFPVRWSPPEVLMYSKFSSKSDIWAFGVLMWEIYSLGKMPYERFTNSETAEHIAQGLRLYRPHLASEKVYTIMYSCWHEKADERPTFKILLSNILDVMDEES

Solved entries:
CC#CC(=O)NC12CCC(c3nc(-c4ccc(CNC(=O)c5cc(F)ccc5OC)cc4)c4c(N)nccn34)(CC1)C2: 0.1 to 1 nM
CC(C#N)C(=O)NC12CCC(c3nc(-c4ccc(C(=O)Nc5cc(C(F)(F)F)ccn5)cc4)c4c(N)nccn34)(CC1)C2 (stereo not drawn): 0.1 to 1 nM
CC#CC(=O)NC12CCC(c3nc(-c4ccc(C(=O)Nc5cc(C#N)ccn5)cc4)c4c(N)nccn34)(CC1)C2: 0.1 to 1 nM
CC1(C(=O)NC23CCC(c4nc(-c5ccc(Oc6ccccc6)cc5)c5c(N)nccn45)(CC2)C3)COC1: 1 to 10 nM

Give recorded IC50. COc1ccc(F)cc1C(=O)NCc1ccc(-c2nc(C34CCC(NC(=O)CN5CCOCC5)(CC3)C4)n3ccnc(N)c23)cc1
1 to 10 nM

Give recorded IC50. Nc1nccn2c(C34CCC(NC(=O)c5ccccc5)(CC3)C4)nc(-c3ccc(C(=O)Nc4cc(C(F)(F)F)ccn4)cc3)c12
1 to 10 nM

###

molecular target: BTK(C481S) (Homo sapiens (Human), UniProt Q06187, C481S); assay: In vitro inhibitory activity against BTK(C481S) enzyme (33P-ATP filter binding); assay type: biochemical; details: class symbols; read-out: IC50 BTK(C48IS)
Attribute measured: IC50

CC#CC(=O)NC12CCC(n3c(=O)n(-c4ccc(C(=O)Nc5cc(C(F)(F)F)ccn5)cc4)c4c(N)ncnc43)(CC1)C2: 1 to 10 nM
COCC(=O)NC12CCC(c3nc(-c4ccc(C(=O)Nc5cc(C(F)(F)F)ccn5)cc4)c4c(N)nccn34)(CC1)C2: 0.1 to 1 nM
CC1(C(=O)NC23CCC(n4cc(-c5ccc(C(=O)Nc6cc(C(F)(F)F)ccn6)cc5)c5c(N)ncnc54)(CC2)C3)COC1: 1 to 10 nM
COCCC(=O)NC12CCC(c3nc(-c4ccc(C(=O)Nc5cc(C(F)(F)F)ccn5)cc4)c4c(N)nccn34)(CC1)C2: ≤ 0.1 nM
CC1(C(=O)NC23CCC(c4nc(-c5ccc(C(=O)Nc6cc(C(F)(F)F)ccn6)cc5)c5c(N)nccn45)(CC2)C3)COC1: ≤ 0.1 nM

Give recorded IC50. COCCC(=O)NC12CCC(c3nc(-c4ccc(Oc5ccccc5)cc4)c4c(N)nccn34)(CC1)C2
0.1 to 1 nM

Give recorded IC50. Nc1ncnc2c1c(-c1ccc(C(=O)Nc3cc(C(F)(F)F)ccn3)cc1)cn2C12CCC(NC(=O)CN3CCOCC3)(CC1)C2
1 to 10 nM

Give recorded IC50. Nc1nccn2c(C34CCC(NC(=O)CN5CCOCC5)(CC3)C4)nc(-c3ccc(Oc4ccccc4)cc3)c12
1 to 10 nM

Give recorded IC50. C=CC(=O)NC12CCC(c3nc(-c4ccc(C(=O)Nc5cc(C(F)(F)F)ccn5)cc4)c4c(N)nccn34)(CC1)C2
0.1 to 1 nM

Give recorded IC50. Nc1nccn2c(C34CCC(NC(=O)c5ccco5)(CC3)C4)nc(-c3ccc(C(=O)Nc4cc(C(F)(F)F)ccn4)cc3)c12
1 to 10 nM

Give recorded IC50. CC(C)(O)C(=O)NC12CCC(c3nc(-c4ccc(C(=O)Nc5cc(C(F)(F)F)ccn5)cc4)c4c(N)nccn34)(CC1)C2
≤ 0.1 nM

Give recorded IC50. Nc1nccn2c(C34CCC(NC(=O)c5ccccn5)(CC3)C4)nc(-c3ccc(C(=O)Nc4cc(C(F)(F)F)ccn4)cc3)c12
1 to 10 nM

Give recorded IC50. N#CCC(=O)NC12CCC(c3nc(-c4ccc(C(=O)Nc5cc(C(F)(F)F)ccn5)cc4)c4c(N)nccn34)(CC1)C2
≤ 0.1 nM
